# target_of_assay: CAAX prenyl protease 2 (Saccharomyces cerevisiae S288c, UniProt Q03530)
# Sequence (Q03530 whole entry): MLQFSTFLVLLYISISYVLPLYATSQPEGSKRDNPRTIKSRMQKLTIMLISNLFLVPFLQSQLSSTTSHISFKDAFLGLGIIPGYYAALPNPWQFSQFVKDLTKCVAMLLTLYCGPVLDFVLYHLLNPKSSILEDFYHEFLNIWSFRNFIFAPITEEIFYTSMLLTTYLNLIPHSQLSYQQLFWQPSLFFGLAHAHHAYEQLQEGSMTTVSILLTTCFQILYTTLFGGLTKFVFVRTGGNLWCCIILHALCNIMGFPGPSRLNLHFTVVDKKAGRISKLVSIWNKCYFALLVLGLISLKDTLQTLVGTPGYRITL
# Type: biochemical
Active and inactive are the calls of the source.
experimental_readout: AC50

Measured AC50, COC(=O)C1CCCN1S(=O)(=O)c1ccc2ccccc2c1 (centres undefined) : 8.28 µM (active)

Measured AC50, O=C1C(=O)N(C/C=C/c2ccccc2)c2ccccc21 : 1.92 µM (active)

Measured AC50, O=C(COc1ccc2ccc(=O)oc2c1)NCCc1c[nH]c2ccc(F)cc12 : 9.47 µM (active)

Measured AC50, COC(=O)c1sc2cnccc2c1N : 14 µM (active)

* * *

# target_of_assay: Beta-galactosidase (Escherichia coli)
# Sequence (Q8VNN2 whole entry): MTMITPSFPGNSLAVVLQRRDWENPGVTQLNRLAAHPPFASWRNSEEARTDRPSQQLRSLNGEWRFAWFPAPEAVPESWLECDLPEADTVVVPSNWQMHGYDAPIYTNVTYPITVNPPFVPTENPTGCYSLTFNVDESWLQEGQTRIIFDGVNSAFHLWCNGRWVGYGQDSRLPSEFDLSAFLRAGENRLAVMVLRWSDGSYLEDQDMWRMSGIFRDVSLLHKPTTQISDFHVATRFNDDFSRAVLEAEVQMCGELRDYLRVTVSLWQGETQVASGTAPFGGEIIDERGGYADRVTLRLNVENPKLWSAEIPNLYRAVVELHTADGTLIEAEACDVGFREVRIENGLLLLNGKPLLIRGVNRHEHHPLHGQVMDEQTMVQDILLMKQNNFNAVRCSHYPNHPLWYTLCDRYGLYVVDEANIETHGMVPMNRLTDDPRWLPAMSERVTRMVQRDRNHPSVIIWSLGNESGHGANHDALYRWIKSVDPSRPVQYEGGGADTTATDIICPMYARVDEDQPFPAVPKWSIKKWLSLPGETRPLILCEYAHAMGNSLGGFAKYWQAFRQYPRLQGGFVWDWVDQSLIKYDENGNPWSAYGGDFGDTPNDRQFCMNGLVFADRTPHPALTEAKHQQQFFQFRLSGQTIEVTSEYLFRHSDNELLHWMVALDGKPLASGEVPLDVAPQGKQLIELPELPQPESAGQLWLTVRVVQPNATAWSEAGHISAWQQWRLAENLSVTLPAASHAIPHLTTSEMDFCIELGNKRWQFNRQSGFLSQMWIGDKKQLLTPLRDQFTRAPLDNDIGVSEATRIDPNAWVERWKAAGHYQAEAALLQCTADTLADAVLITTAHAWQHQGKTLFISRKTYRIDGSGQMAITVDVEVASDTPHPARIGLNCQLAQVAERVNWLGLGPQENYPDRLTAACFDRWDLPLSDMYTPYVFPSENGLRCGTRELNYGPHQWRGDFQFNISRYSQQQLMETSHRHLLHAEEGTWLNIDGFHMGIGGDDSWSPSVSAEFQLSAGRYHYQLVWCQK
# method_notes: beta-galactosidase enzyme inhibitors and activators, dose response, artefact control for CCR6 antagonist project, biochemical, E. coli enzyme, set 3 (AID 504712)
# Assay type: functional
Calls of active or inactive are those of the source.
experimental_readout: IC50

Measured IC50, CNC[C@H](CC1CCCCC1)NC[C@H](Cc1ccccc1)NCCC12CC3CC(CC(C3)C1)C2 : > 66.6 µM (inactive)

Measured IC50, COC(=O)C1=C(C(=O)OC)SC2(S1)C(C(=O)OC)=C(C(=O)OC)Sc1c2ssc1=O : > 66.6 µM (inactive)

Measured IC50, O=[N+]([O-])c1ccc(/C=C/C2=NN(c3ccccc3)C(c3ccco3)C2)o1 (stereo not given) : 41 µM (inactive)

Measured IC50, COc1cc(N2C(=O)C=CC2=O)c(OC)cc1Cl : > 66.6 µM (inactive)

Measured IC50, CCCCC(=O)NC(=S)Nc1ccccc1C(=O)Nc1ccccc1 : > 66.6 µM (inactive)

* * *

# Tested on: SN12K1
# method_notes: cells
# Type: functional
# particulars: Homo sapiens
Active and inactive are the calls of the source.
experimental_readout: GI50

Measured GI50, O=C(O)CNS(=O)(=O)c1ccc(NC(=O)Nc2ccccc2)cc1 : > 100 µM (inactive)

Measured GI50, Nc1ncc(CN2CCCC2)c(-c2ccccc2O)n1 : > 100 µM (inactive)

Measured GI50, CC(NCCS(=O)(=O)O)C(=O)O (configuration not stated) : > 100 µM (inactive)

Measured GI50, Cc1c2cc[n+](C)c(C)c2cc2c1[nH]c1ccccc12 : 2.21 µM (inactive)

Measured GI50, COc1ccc(C2C(C)C(=O)C(C)C(c3ccc(OC)cc3)N2N=O)cc1 (configuration not stated) : 55.2 µM (inactive)

Measured GI50, CO/C=C1\OC(=O)C=C1OC : > 100 µM (inactive)

Measured GI50, COc1cc(C2(c3ncc[nH]3)SSSCC2O)ccc1O (configuration not stated) : 30.5 µM (inactive)

* * *

# target_of_assay: Corticotropin-releasing factor receptor 2/Corticotropin-releasing factor-binding protein (Homo sapiens, UniProt P24387+Q13324)
# Sequence (Q13324 whole entry): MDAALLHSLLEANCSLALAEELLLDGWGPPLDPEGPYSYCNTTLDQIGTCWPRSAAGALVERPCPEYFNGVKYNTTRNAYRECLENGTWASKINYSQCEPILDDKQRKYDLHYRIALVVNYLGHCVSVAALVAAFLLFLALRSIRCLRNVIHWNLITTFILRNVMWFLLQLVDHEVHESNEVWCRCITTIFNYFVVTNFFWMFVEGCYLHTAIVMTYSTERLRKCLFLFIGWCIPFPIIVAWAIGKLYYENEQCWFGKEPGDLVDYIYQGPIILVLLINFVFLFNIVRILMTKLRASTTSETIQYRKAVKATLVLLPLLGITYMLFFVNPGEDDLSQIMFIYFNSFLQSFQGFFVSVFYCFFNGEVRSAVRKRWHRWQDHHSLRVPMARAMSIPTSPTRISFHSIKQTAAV
# Sequence (P24387 whole entry): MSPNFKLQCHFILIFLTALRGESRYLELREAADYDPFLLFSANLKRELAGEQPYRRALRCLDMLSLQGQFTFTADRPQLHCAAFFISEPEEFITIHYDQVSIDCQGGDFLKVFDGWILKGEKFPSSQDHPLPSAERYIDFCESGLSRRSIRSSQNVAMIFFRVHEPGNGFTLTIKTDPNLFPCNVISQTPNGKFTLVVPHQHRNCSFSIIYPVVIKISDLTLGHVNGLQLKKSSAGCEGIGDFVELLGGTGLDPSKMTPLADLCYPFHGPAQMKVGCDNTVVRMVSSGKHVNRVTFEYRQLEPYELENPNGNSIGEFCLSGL
# method_notes: activators of CRF receptor 2 with binding protein – uHTS hits, confirmation (AID 602473)
# Assay type: functional
# particulars: read-out: EC50_Mean
Active and inactive are the calls of the source.
Allowed answers: active, inactive

Assay result, entry O=C(COc1ccc(S(=O)(=O)NC2CCCCC2)cc1Cl)NCc1cccnc1 — outcome?
inactive

Assay result, entry COc1cccc(CN2CCN(c3cccc(C(F)(F)F)c3)CC2)c1OC — outcome?
inactive

Assay result, entry CCCN1CCc2c(sc(NC(=O)c3ccc(S(=O)(=O)N4CCCC4)cc3)c2C(N)=O)C1 — outcome?
active

Assay result, entry CC(=O)NC(Cc1ccc(C)cc1)C(=O)NC1CCN(c2ncccc2[N+](=O)[O-])CC1 (stereo not given) — outcome?
inactive

Assay result, entry COc1ccc(Cl)cc1NC(=O)CNc1ccccc1F — outcome?
inactive

* * *

# target_of_assay: UniProt:P11712
# Sequence (P11712 whole entry): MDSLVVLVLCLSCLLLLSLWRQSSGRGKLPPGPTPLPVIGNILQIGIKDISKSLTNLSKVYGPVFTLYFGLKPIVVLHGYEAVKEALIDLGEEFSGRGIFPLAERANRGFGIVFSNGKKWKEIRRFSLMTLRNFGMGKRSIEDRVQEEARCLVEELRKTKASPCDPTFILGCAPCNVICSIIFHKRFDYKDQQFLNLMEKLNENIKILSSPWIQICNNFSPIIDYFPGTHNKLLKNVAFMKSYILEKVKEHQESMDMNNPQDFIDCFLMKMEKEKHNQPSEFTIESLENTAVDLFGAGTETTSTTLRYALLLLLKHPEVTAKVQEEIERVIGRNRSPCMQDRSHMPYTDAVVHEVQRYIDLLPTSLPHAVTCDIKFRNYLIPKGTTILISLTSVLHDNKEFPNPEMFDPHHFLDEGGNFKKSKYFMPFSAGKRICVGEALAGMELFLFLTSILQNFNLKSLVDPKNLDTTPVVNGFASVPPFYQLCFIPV
Consider the following compounds; for each one, report its AC50.

Measured AC50, CC(C)NC(=O)c1ccccc1NC(=O)/C=C/c1ccc([N+](=O)[O-])cc1 : 2 µM (inconclusive)

Measured AC50, CC(C)c1ccc(/C(C(=O)O)=C(\O)C(=O)O)cc1 : 3.16 µM (inconclusive)

Measured AC50, CCn1c(SCC(=O)c2ccccc2)nnc1-c1cccs1 : 28.2 µM (inconclusive)

Measured AC50, COc1ccc(-n2c(=O)c(-c3cn(C)c4ccccc34)nc3cnc(N4CCNCC4)nc32)cc1 : 39.8 µM (inconclusive)

Measured AC50, CCCCCCOC(=O)C(C#N)c1nc2ccccc2nc1N1CCN(CC)CC1 (centres undefined) : 7.94 µM (inconclusive)

Measured AC50, NS(=O)(=O)c1ccc(/N=N\c2cnc(O)c(O)c2)cc1 : 6.31 µM (inconclusive)

Measured AC50, O=C(/C=C/c1ccc(Cl)cc1)NCCSc1ccccc1 : 5.01 µM (inconclusive)

Measured AC50, COCC(=O)N1CCC2(CCCN(c3ccc(-c4ccccc4)cc3)C2)CC1 : 20 µM (inconclusive)

Measured AC50, Cn1cccc1C(=O)N1CCC2(CC1)CN(C(c1ccccc1)c1ccccc1)C2 : 39.8 µM (inconclusive)

Measured AC50, O=C(NCCO)c1ccc(Cl)cc1 : 5.01 µM (inconclusive)

Measured AC50, COC(=O)C/C=C\[C@@H](C)[C@@H](/C=N\O[C@@H](C)c1cc(-c2c(C)cc(C)cc2C)no1)OC : 3.16 µM (inconclusive)

Measured AC50, O=[N+]([O-])c1cccc(-c2nc(-c3ccncc3)no2)c1 : 8.91 µM (inconclusive)

Measured AC50, O=C(O)/C(=C\c1ccccc1)Cc1ccccc1 : 3.98 µM (inconclusive)

Measured AC50, CCOC(=O)c1sc2nc(CC(=O)OC)nc(NCc3ccc(F)cc3)c2c1C : 5.01 µM (inconclusive)

Measured AC50, Cc1ccc(C2C(C(=O)c3ccccc3)=C(O)C(=O)N2CCN2CCOCC2)o1 (centres undefined) : 7.08 µM (inconclusive)

Measured AC50, O=C1C(CC[S+]([O-])c2ccccc2)C(=O)N(c2ccccc2)N1c1ccccc1 (centres undefined) [SULFINPYRAZONE] : 10 µM (inconclusive)

Measured AC50, O=C(NNC(=O)c1ccccc1-n1cccc1)c1ccccc1 : 35.5 µM (inconclusive)

Measured AC50, COCCN1C(=O)c2ccccc2C(C(=O)Nc2ccc3c(c2)OCCO3)C1c1ccc(F)cc1 (centres undefined) : 35.5 µM (inconclusive)

Measured AC50, COc1ccc(CCNC(=O)Cn2c(=O)oc3ccccc32)cc1OC : 2.51 µM (inconclusive)

* * *

# method_notes: inhibitors of clade B AD8 Env fusion, dose response, cell-based, cherry-pick (AID 652062);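 also: luciferase signal from cell-cell fusion driven by HIV-1 clade B AD8 Env; potency is for inhibitors of fusion seen as a drop in luminescence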
# Assay type: functional
Activity calls are given as the source filed them.
Consider the following compounds; for each one, report its AC50.

Measured AC50, C=C(C)c1cccc(C(C)(C)NC(=O)Nc2ccc(Cl)cn2)c1 : 12.8 µM (active)

Measured AC50, CCc1ccc(CN2CCN(C(=O)c3cccc(OC)c3OC)CC2)cc1 : 11.8 µM (active)

Measured AC50, CC(C)(C)C1CCc2onc(C(=O)NCc3ccc(F)cc3)c2C1 (centres undefined) : 21.9 µM (active)

Measured AC50, CN(C)c1ccc(O)c2c1CC1CC3[C@@H](N(C)C)C(=O)C(C(N)=O)C(=O)[C@]3(O)C(=O)C1C2=O (some centres undefined) : < 0.26 µM (active)

* * *

# Test system: P388;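 also: compound exposure lasted 48 hours before growth was measured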
# method_notes: cells
# Format: functional
# particulars: Mus musculus
Calls of active or inactive are those of the source.
Allowed answers: 1 for active, -1 for inactive

Assay result, entry O=C(O)CNS(=O)(=O)c1ccc(NC(=O)Nc2ccccc2)cc1 — outcome?
-1

Assay result, entry Nc1ncc(CN2CCCC2)c(-c2ccccc2O)n1 — outcome?
-1

Assay result, entry CC(C)C1NC(=O)CC(c2ccccc2)N(N=O)C1c1ccccc1 (configuration not stated) — outcome?
-1

Assay result, entry CN(C)CCNC(=O)c1cccc2[nH]c(-c3ccc(Cl)cc3)nc12 — outcome?
-1

Assay result, entry Cc1c2cc[n+](Cc3ccc(I)cc3)cc2c(C)c2c1[nH]c1ccccc12 — outcome?
1

Assay result, entry COc1cccc2c1C(=O)c1c(O)c3c(c(O)c1C2=O)C[C@@](O)(C(C)O)C[C@@H]3OC1CC(N)C(O)C(C)O1 (some centres not stated) — outcome?
1

Assay result, entry CC(=O)O[C@H]1C(=O)[C@@]2(C)[C@H]([C@H](OC(=O)c3ccccc3)[C@]3(O)C[C@H](OC(=O)[C@H](O)[C@@H](NC(=O)c4ccccc4)c4ccccc4)C(C)=C1C3(C)C)[C@]1(OC(C)=O)CO[C@@H]1C[C@@H]2O — outcome?
1

* * *

# target_of_assay: RNA-binding protein pos-1 (Caenorhabditis elegans)
# Sequence (G5EF15 whole entry, the tested form may be a part): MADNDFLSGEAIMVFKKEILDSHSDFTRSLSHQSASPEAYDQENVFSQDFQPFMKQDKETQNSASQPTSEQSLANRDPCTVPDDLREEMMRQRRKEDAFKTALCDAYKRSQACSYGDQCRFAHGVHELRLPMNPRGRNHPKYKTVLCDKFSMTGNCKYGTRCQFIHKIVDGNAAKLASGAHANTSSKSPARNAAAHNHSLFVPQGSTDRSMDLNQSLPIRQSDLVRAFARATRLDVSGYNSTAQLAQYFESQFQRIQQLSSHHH
# method_notes: inhibitors of POS-1/mex-3 RNA binding, dose response, biochemical, fluorescence polarization (AID 1964);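 also: purified POS-1 fused to maltose binding protein made in E. coli; potency of compounds blocking POS-1 binding to fluorescent RNA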
The source made the active and inactive calls.
experimental_readout: EC50

Measured EC50, C/C(=N/N=C(\C)c1ccccc1O)c1ccccc1O : > 300 µM (not active)

Measured EC50, O=C1c2cc(F)ccc2-n2c1nc1ccccc1c2=O : > 300 µM (not active)

Measured EC50, CCN1C(=C(C#N)C#N)C=Cc2ccccc21 : > 300 µM (inconclusive)

Measured EC50, CCOC(=O)C1Nc2ccc(C(=O)O)cc2C2C=CCC12 (stereo not given) : 38.9 µM (active)

Measured EC50, Cc1ccc(N(C)S(=O)(=O)c2c(C)noc2/C=C/N(C)C)cc1 : > 300 µM (not active)
